- Test System: Calcium and integrin-binding protein 1 (Homo sapiens) (UniProt Q99828)
- Sequence (Q99828 whole entry, looked up): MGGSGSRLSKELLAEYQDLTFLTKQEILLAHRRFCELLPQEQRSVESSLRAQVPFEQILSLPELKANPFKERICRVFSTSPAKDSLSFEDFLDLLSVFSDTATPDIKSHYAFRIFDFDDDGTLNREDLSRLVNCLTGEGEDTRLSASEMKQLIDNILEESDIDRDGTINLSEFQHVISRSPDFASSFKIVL
- Experiment Summary: Primary qHTS for Identification of Calcium Integrin Binding Protein 1 (CIB1) Competitor (AID 1508620);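 also: GST tagged CIB1 binding a fluorescein labelled alphaIIb integrin peptide tracer; top concentration of the series differs between compounds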
- Run Conditions: CIB1-GST / FITC-alphaIIb peptide fluorescence polarization; series mostly up to 114 µM
Inconclusive results are not listed. Active and inactive are the calls of the source. Calls follow the shape of the dose curve; as a rule, active = well fitted inhibition curve with a large enough effect; inconclusive = small, poorly fitted or top-dose-only effect; inactive = flat fitted curve, though single readings scatter.
Readout: activity change, negative = inhibition

INSERT INTO measurements (compound, test_system, readout, value_observed) VALUES
  ('O=S(=O)(O)c1cc(I)c(O)c2ncccc12', 'Calcium and integrin-binding protein 1 (Homo sapiens) (UniProt Q99828)', 'activity change, negative = inhibition', 'inactive'),
  ('CC1=C(/C=C/C(C)=C/C=C/C(C)=C/C(=O)O)C(C)(C)CCC1', 'Calcium and integrin-binding protein 1 (Homo sapiens) (UniProt Q99828)', 'activity change, negative = inhibition', 'inactive'),
  ('CCN(CC)CCNC(=O)c1cc(Cl)c(N)cc1OC', 'Calcium and integrin-binding protein 1 (Homo sapiens) (UniProt Q99828)', 'activity change, negative = inhibition', 'inactive'),
  ('CSc1ccc2c(c1)N(CCC1CCCCN1C)c1ccccc1S2 (configuration not stated)', 'Calcium and integrin-binding protein 1 (Homo sapiens) (UniProt Q99828)', 'activity change, negative = inhibition', 'inactive'),
  ('Cc1cccc(Nc2cc(Cl)nc(SCC(=O)O)n2)c1C', 'Calcium and integrin-binding protein 1 (Homo sapiens) (UniProt Q99828)', 'activity change, negative = inhibition', 'inactive');

Which value of activity change, negative = inhibition has been reported for NC(=O)NNc1ccccc1 in the records?
inactive

Using the record for CC[C@@]1(c2ccccc2)NC(=O)N(C)C1=O , report its activity change, negative = inhibition.
inactive

Source: PubChem BioAssay (NCATS)
